- assay explanation: A549 lung cancer cell viability effects, profiling panel, resazurin fluorescence, 24 h, PK04 Diversity Set (AID 1171); note: test concentration not given here
- test settings: higher = more signal, called active from +8 up or from −8 down
observation type: z-score
Respond with the number and no other words.

Reference set, count: 4
| compound | z-score |
| --- | --- |
| C=CCNC(=O)[C@@H]1[C@H]2C(=O)O[C@H](c3ccccc3)[C@H](c3ccccc3)N2[C@H](c2ccc(O)cc2)[C@@]12C(=O)Nc1ccccc12 | 0.679 |
| CC(C)C(CO)N1C(=O)[C@@H]2[C@H]3C(=O)OCC=C[C@H]3OC23C=CCN(Cc2ccccc2)C(=O)[C@@H]13 (some centres not stated) | -0.077 |
| [N-]=[N+]=NCc1ccccc1C[C@@]1(C(=O)O)N=C(c2ccc(OCCCO)cc2)O[C@@H]1c1ccccc1 | 0.946 |
| C=CCN1C(=O)[C@@]2(O[C@@H](CCO)[C@H]([Si](C)(C)c3ccc(OC)cc3)[C@H]2C)c2cc(N(C=O)c3ccccc3)ccc21 | -4.7 |

Exercise: Any idea what z-score was measured for C=CCC(OC(C)=O)[C@@H]1[C@@H](N(Cc2ccc(-c3cccc(C(F)(F)F)c3)o2)C(=O)c2ccc(-c3ccccc3)cc2)c2cc(OCCCO)ccc2N1C(=O)Cc1ccc(OC)cc1 (some centres not stated) ?
Key: 0.797

Exercise: Another compound: `CC(C)C[C@@H]1NC(=O)[C@H]2C[C@@H](C(=O)NCCCC[N+](C)(C)C)[C@@H](c3cccc(OCCO)c3)N2C1=O`
Key: -0.474

Exercise: Another compound: `C=CCN1C(=O)[C@@]2(O[C@@H](CCn3cc(CCO)nn3)[C@H]([Si](C)(C)c3ccc(OC)cc3)[C@H]2C)c2cc(N3C(=O)c4cccc5cccc3c45)ccc21`
Key: -5.51

----------
Listed below: z-score values for each entry.
- assay explanation: yeast growth modulation, basal conditions, primary screen, YJM789 clinical isolate, OD600, 24 h (AID 1089);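 note: growth of clinical yeast isolate S. cerevisiae YJM 789 seeded 1000 cells per well; test concentration not given here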
- test settings: S. cerevisiae YJM789 growth, higher = more signal, called active from +8 up or from −8 down
Respond with the number and no other words.

Reference set, count: 3
| compound | z-score |
| --- | --- |
| C#CCOc1ccc(C[C@H]2C(=O)O[C@H](Cc3ccccc3)[C@H](/C=C/C3CC3)N2CC#C)cc1 | 1.35 |
| C=CCC(OC(C)=O)[C@@H]1[C@@H](N(Cc2cc3ccccc3o2)C(=O)c2ccc(-c3ccccc3)cc2)c2cc(OCCCO)ccc2N1C(=O)c1ccc(-c2ccccc2)cc1 (some centres undefined) | 1.13 |
| C=CCC1(CC=C)C[C@H]2CO[C@H](c3ccc(OC)cc3)N2C1=O | -0.137 |

Exercise: Any idea what z-score was measured for CC(C)CCC[C@@H](C)[C@H]1CC[C@@]2(C)C3=C(CC[C@]12C)[C@@]1(C)CC[C@H](OC(=O)CCl)C(C)(C)C1CC3 (some centres undefined) ?
Key: -0.0688

----------
- assay explanation: basal RPMI8226 viability, no added stimulus, profiling panel, cell-based, calcein-AM fluorescence, 48 h, PK04 Diversity Set (AID 1166);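 note: cells grown under basal conditions without added stimulus; test concentration not given here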
- test settings: RPMI8226 myeloma viability, higher = more signal
observation type: z-score

| molecule | z-score |
| --- | --- |
| CC(C)CCC[C@@H](C)[C@H]1CC[C@@]2(C)C3=C(CC[C@]12C)[C@@]1(C)CC[C@H](OC(=O)CCl)C(C)(C)C1CC3 (some centres undefined) | 0.895 |
| CC(C)(C)OC(=O)CC[C@@]1(C(=O)N2CCOCC2)N=C(c2ccc(OCCCO)cc2)O[C@@H]1c1ccccc1 | 0.414 |

Exercise: Any idea what z-score was measured for C=CCC(OC(C)=O)[C@@H]1[C@@H](N(Cc2ccc(-c3cccc(C(F)(F)F)c3)o2)C(=O)c2ccc(-c3ccccc3)cc2)c2cc(OCCCO)ccc2N1C(=O)Cc1ccc(OC)cc1 (some centres undefined) ?
Key: 0.72

Exercise: Another molecule: `COC(=O)c1c(CC[C@@H](CO)NC(=O)Nc2ccc(OC)cc2)oc(C(=O)Cc2ccccc2)c1C(=O)OC`
Key: 0.141

Exercise: Another molecule: `C=CCNC(=O)[C@@H]1[C@H]2C(=O)O[C@H](c3ccccc3)[C@H](c3ccccc3)N2[C@H](c2ccc(O)cc2)[C@@]12C(=O)Nc1ccc(C#Cc3ccc(OC)cc3)cc12`
Key: -4.22

Exercise: Another molecule: `C=CCN1C(=O)[C@@]2(O[C@@H](CCO)[C@H]([Si](C)(C)c3ccc(OC)cc3)[C@H]2C)c2cc(N(C=O)c3ccccc3)ccc21`
Key: -4.39

----------
- Test system: PRMT1 (protein arginine N-methyltransferase 1)
- assay explanation: PRMT1 binders on small-molecule microarrays, primary screen, biochemical, small-molecule microarray, 635 nm fluorescence (AID 1088);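 note: binding of Prmt1 protein to compounds spotted on small-molecule microarray slides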
- test settings: small-molecule microarray binding, higher = more signal
Listed below: composite z-score values for each entry.
Respond with the number and no other words.

Reference set, count: 3
| compound | composite z-score |
| --- | --- |
| CCN(CC)c1ccc(N2CC=CC34O[C@@H]5C=CCOC(=O)[C@@H]5[C@H]3C(=O)N(C(C)CO)[C@@H]4C2=O)cc1 (some centres undefined) | -1.48 |
| CC(CO)N1C(=O)[C@@H]2C3C(=O)OCCC/C=C\[C@H]3OC23C=CCN(Cc2ccccc2)C(=O)[C@@H]13 (some centres undefined) | 0.432 |
| C[N+](C)(C)CCCCNC(=O)[C@@H]1C[C@@H]2C(=O)NCC(=O)N2[C@@H]1c1cccc(OCCO)c1 | 1.39 |

# input for lookup
Exercise: Any idea what composite z-score was measured for `[N-]=[N+]=NCc1ccccc1C[C@]1(C(=O)NCc2ccccc2)N=C(c2ccc(OCCCO)cc2)O[C@H]1c1ccccc1` ?
Key: 0.544

----------
- assay explanation: small-molecule binders of probe aInhba, primary screen, biochemical, small-molecule microarray, 635/667 nm fluorescence (AID 1148);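 note: score merges 667nm spot fluorescence with signal-to-noise for antibody binding to printed compounds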
- test settings: higher = more signal
observation type: composite z-score
Respond with the number and no other words.

Exercise: Any idea what composite z-score was measured for `O=C1c2ccccc2C(=O)c2cc([C@H]3Oc4ccccc4S(=O)(=O)N4CCC[C@@H]34)ccc21` ?
Key: -0.0079

Exercise: Another compound: CC(C)C(CO)N1C(=O)[C@@H]2[C@H]3C(=O)OCC=C[C@H]3OC23C=CCN(Cc2ccccc2)C(=O)[C@@H]13 (some centres not stated)
Key: -0.195

Exercise: Another compound: `Cc1ccc(S[C@]2(C(=O)NCC(C)C)CC(=O)N(C(C)C)[C@@H]2c2ccc(CO)cc2)cc1`
Key: 0.0464

Exercise: Another compound: `C=CCNC(=O)[C@@H]1[C@H]2C(=O)O[C@H](c3ccccc3)[C@H](c3ccccc3)N2[C@H](c2ccc(O)cc2)[C@@]12C(=O)Nc1ccc(C#Cc3ccc(OC)cc3)cc12`
Key: 0.0228

Exercise: Another compound: `COc1ccc([Si](C)(C)[C@H]2[C@H](CC(=O)N(CCO)Cc3ccccc3)O[C@@]3(C(=O)N(Cc4ccc(N5CCC5=O)cc4)c4ccccc43)[C@@H]2C)cc1`
Key: -0.128

Exercise: Another compound: `CC(C)C[C@@H]1NC(=O)[C@@H]2C[C@H](C(=O)NCCCCCNC(=O)CS)[C@H](c3cccc(OCCO)c3)N2C1=O`
Key: 0.0207

Exercise: Another compound: COC(=O)C1=CC(c2ccc(CO)cc2)=CC(C2CC2)N(C)C=C1C(=O)OC (configuration not stated)
Key: 0.203

----------
Listed below: z-score values for each entry.
- assay explanation: splicing luciferase reporter signal modulators, primary screen, spliceosome inhibition project, cell-based, HEK293, splice +/- reporter (AID 1101);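 note: HEK293 cells carrying a splicing-competent luciferase reporter gene; test concentration not given here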
- test settings: luminescence, 24 h, higher = more signal, called active from +8 up or from −8 down
Respond with the number and no other words.

Reference set, count: 6
| query smiles | z-score |
| --- | --- |
| O=C(NC1CC1)[C@@H]1c2ccccc2C(=O)N(Cc2ccccc2C(F)(F)F)[C@H]1c1ccc(CO)cc1 | -0.0246 |
| CC(C)N1C(=O)c2ccccc2[C@@H](C(=O)NCc2ccccc2)[C@@H]1c1ccc(CO)cc1 | -0.242 |
| COc1ccc([Si](C)(C)[C@@H]2[C@@H](CCn3cc(CCO)nn3)O[C@]3(C(=O)N(Cc4ccc(N5C(=O)c6cccc7cccc5c67)cc4)c4ccccc43)[C@H]2C)cc1 | -2.39 |
| C=CCN1C(=O)[C@@]2(O[C@@H](CCO)[C@H]([Si](C)(C)c3ccc(OC)cc3)[C@H]2C)c2cc(N3C(=O)c4cccc5cccc3c45)ccc21 | -3.45 |
| Cc1ccc(S[C@]2(C(=O)NCC(C)C)CC(=O)N(C(C)C)[C@@H]2c2ccc(CO)cc2)cc1 | -0.982 |
| COCCOC(=O)N1C(=O)[C@@]2(c3cc(C#CCNC(N)=O)ccc31)[C@H](C(=O)NC[C@H](O)c1ccccc1)[C@H]1C(=O)O[C@H](c3ccccc3)[C@H](c3ccccc3)N1[C@@H]2c1ccc(O)cc1 | 0.012 |

# input for lookup
Exercise: Any idea what z-score was measured for `Cc1ccc(N2C(=O)c3ccccc3[C@](C)(C(=O)NC3CC3)[C@@H]2c2ccc(CO)cc2)nc1` ?
Key: 0.466
